- Tested on: Abutilon theophrasti (ABUTH)
- procedure.details: Pre-emergence herbicidal activity (B1)
- Format: in vivo
- condition.set: Test 1b, 1000 g/ha, evaluated after 13 days, 5=total damage to plant, 0=no damage to plant
In this section, each of the compounds is paired with its reported ABUTH damage score.
Lab note: jot the number down without any unit.

[in] // lookup ABUTH damage score for Cc1nc(-c2cncc(F)c2)ccc1N [Compound A8]
[out] 0

[in] // lookup ABUTH damage score for Fc1cncc(-c2ccc(NCc3cccc(Cl)c3)c(C(F)(F)F)n2)c1 [Compound A18]
[out] 0

Continuing:
[in] // lookup ABUTH damage score for CNc1ccc(-c2cncc(OC)c2)nc1C(F)(F)F [Compound A10]
[out] 1

====

- Test system: Abutilon theophrasti (ABUTH)
- procedure.details: Post-emergence herbicidal activity (B2)
- Format: in vivo
- condition.set: Test B2b, 1000 g/ha, evaluated after 13 days, 5=total damage to plant, 0=no damage to plant
property.measured: ABUTH damage score
Lab note: jot the number down without any unit.

Solved entries:
[in] // lookup ABUTH damage score for CC(Nc1ccc(-c2cncc(F)c2)nc1C(F)(F)F)c1ccccc1 (stereo not shown)
[out] 0

[in] // lookup ABUTH damage score for `CNc1ccc(-c2cncnc2)nc1C`
[out] 0

[in] // lookup ABUTH damage score for `COC(=O)CNc1ccc(-c2cncc(F)c2)nc1C(F)(F)F`
[out] 2

[in] // lookup ABUTH damage score for `CCNc1ccc(-c2cncc(F)c2)nc1C(F)(F)F`
[out] 0

[in] // lookup ABUTH damage score for `CNc1ccc(-c2cncc(OC)c2)nc1C(F)(F)F`
[out] 0

[in] // lookup ABUTH damage score for `Nc1ccc(-c2cncnc2)nc1C(F)(F)F`
[out] 1

[in] // lookup ABUTH damage score for CC(Nc1ccc(-c2cncc(F)c2)nc1C(F)(F)F)c1cccc(C(F)(F)F)c1 (stereo not shown)
[out] 0

[in] // lookup ABUTH damage score for `Cc1nc(-c2cncc(C(F)(F)F)c2)ccc1N`
[out] 0

Continuing:
[in] // lookup ABUTH damage score for `Cc1ccc(CNc2ccc(-c3cncc(F)c3)nc2C(F)(F)F)cc1`
[out] 0

[in] // lookup ABUTH damage score for `Fc1cncc(-c2ccc(NCc3ccc(C(F)(F)F)cc3)c(C(F)(F)F)n2)c1`
[out] 0

====

- Test system: Amaranthus retroflexus (AMARE)
- procedure.details: Post-emergence herbicidal activity (B2)
- Type: in vivo
- condition.set: Test B2b, 1000 g/ha, evaluated after 13 days, 5=total damage to plant, 0=no damage to plant
- Experimental: B2 Post-Emergence Herbicidal Activity Seeds of a variety of test species were sown in standard soil in pots: Triticum aestivium (TRZAW), Avena fatua (AVEFA), Alopecurus myosuroides (ALOMY), Echinochloa crus-galli (ECHCG), Lolium perenne (LOLPE), Zea Mays (ZEAMX), Abutilon theophrasti (ABUTH), Amaranthus retroflexus (AMARE) and Setaria faberi (SETFA). […] After 13 days, the test was evaluated (5=total damage to plant; 0=no damage to plant). […]
In this section, each of the compounds is paired with its reported AMARE damage score.

Solved entries:
[in] # value lookup — system Amaranthus retroflexus (AMARE), readout AMARE damage score, item CC(Nc1ccc(-c2cncc(F)c2)nc1C(F)(F)F)c1ccccc1 (centres unmarked)
[out] 0

[in] # value lookup — system Amaranthus retroflexus (AMARE), readout AMARE damage score, item `CNc1ccc(-c2cncc(C(F)(F)F)c2)nc1C(F)(F)F`
[out] 1

[in] # value lookup — system Amaranthus retroflexus (AMARE), readout AMARE damage score, item `Fc1ccc(CNc2ccc(-c3cncc(F)c3)nc2C(F)(F)F)cc1`
[out] 1

Continuing:
[in] # value lookup — system Amaranthus retroflexus (AMARE), readout AMARE damage score, item `CC#CCNc1ccc(-c2cncc(F)c2)nc1C(F)(F)F`
[out] 2

[in] # value lookup — system Amaranthus retroflexus (AMARE), readout AMARE damage score, item `C=CCNc1ccc(-c2cncc(F)c2)nc1C(F)(F)F`
[out] 2

[in] # value lookup — system Amaranthus retroflexus (AMARE), readout AMARE damage score, item `Fc1cncc(-c2ccc(NCc3ccc(Cl)cc3)c(C(F)(F)F)n2)c1`
[out] 0

[in] # value lookup — system Amaranthus retroflexus (AMARE), readout AMARE damage score, item COC(=O)C(C)Nc1ccc(-c2cncc(F)c2)nc1C(F)(F)F (centres unmarked)
[out] 2

[in] # value lookup — system Amaranthus retroflexus (AMARE), readout AMARE damage score, item `Cc1nc(-c2cncc(C(F)(F)F)c2)ccc1N`
[out] 0

[in] # value lookup — system Amaranthus retroflexus (AMARE), readout AMARE damage score, item `Fc1cncc(-c2ccc(Nc3ccccc3)c(C(F)(F)F)n2)c1`
[out] 0

[in] # value lookup — system Amaranthus retroflexus (AMARE), readout AMARE damage score, item `CNc1ccc(-c2cccnc2)nc1C(F)(F)F`
[out] 1

[in] # value lookup — system Amaranthus retroflexus (AMARE), readout AMARE damage score, item `COc1cncc(-c2ccc(N)c(C)n2)c1`
[out] 1

Hey, just so you know, these numbers are from patent US10986838B2.
